assay.overview: self-splicing fitness, log relative to wild type (ln ratio); higher = more splicing; Tetrahymena group I intron in knt gene, E. coli kanamycin selection, DiMSum; sequences stand for … in CUCUCU…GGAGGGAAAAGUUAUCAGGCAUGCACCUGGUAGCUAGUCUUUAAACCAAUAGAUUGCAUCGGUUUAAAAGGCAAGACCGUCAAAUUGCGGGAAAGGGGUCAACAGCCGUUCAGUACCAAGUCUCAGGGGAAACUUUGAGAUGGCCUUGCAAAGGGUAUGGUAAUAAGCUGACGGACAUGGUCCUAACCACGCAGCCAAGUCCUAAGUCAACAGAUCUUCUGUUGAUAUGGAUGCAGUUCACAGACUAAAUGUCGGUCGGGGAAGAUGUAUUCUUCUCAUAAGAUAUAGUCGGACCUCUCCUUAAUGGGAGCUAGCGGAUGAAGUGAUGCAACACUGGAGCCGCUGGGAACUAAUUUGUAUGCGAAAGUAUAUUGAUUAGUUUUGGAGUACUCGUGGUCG;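 note: selection with 25 µg/mL kanamycin versus none on LB agar overnight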
recorded.conditions: 30 °C
Assignment: determine reported self-splicing fitness (ln) for the given sequences.
Answers are plain numbers.

Below: 5 sequences and their reported self-splicing fitness (ln).
UUCUAGCAAUAUUACGUUUC | -2.75
CGUAAGCAAUAUUACGCGCA | -1.3
CGUAAGCAAUAUUACGGCAC | -3.68
AACCAGCAAUAUUACGUAUG | -2
CGUCAGCAAUAUUACGCUGA | -2.3

Each sequence below has a reported value. Please supply its self-splicing fitness (ln).
1. GUGAAGCAAUAUUACGACGU
2. GUUCAGCAAUAUUACGGUAA
3. CACGAGCAAUAUUACGGAAU
4. UGGUAGCAAUAUUACGUUUG

(A)
0.815
-1.21
-2.85
-1.26

Each sequence below has a reported value. Please supply its self-splicing fitness (ln).
1. ACGUAGCAAUAUUACGCCAA
2. AUACAGCAAUAUUACGAAUC
3. AGCCAGCAAUAUUACGAUCC
4. ACGGAGCAAUAUUACGUCUA

(A)
[-2.3, -4.08, -2.27, -3.96]

Each sequence below has a reported value. Please supply its self-splicing fitness (ln).
1. AAUAAGCAAUAUUACGACGC
2. GUCUAGCAAUAUUACGGCGU
3. GGGAAGCAAUAUUACGGCUA

(A)
[-0.19, 0.142, -0.707]
